Examples of binders with documented Binding Signal (fold over 6E7 parental antibody) follow.
- system: T1, human TREM2 (human) (UniProt Q9NZC2)
- T1 sequence (looked up): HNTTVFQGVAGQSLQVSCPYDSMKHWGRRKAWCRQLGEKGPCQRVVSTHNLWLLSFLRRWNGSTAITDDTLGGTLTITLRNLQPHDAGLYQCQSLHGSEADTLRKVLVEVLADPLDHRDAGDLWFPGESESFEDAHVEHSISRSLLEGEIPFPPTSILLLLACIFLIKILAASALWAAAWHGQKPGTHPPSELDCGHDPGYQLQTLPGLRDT
- experimental_protocol: 2nd screen, 2 nM Ab
Give just the numeric value; fold need not be written.

// solved cases for Binding Signal (fold over 6E7 parental antibody) follow
INSERT INTO measurements (binder, unit_spec, data_value) VALUES
  ('6E7 variant V50 (antibody, V domains shown) VH: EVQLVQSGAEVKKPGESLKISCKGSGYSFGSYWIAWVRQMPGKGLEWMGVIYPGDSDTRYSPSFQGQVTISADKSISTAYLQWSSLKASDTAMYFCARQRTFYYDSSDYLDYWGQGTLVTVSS VL: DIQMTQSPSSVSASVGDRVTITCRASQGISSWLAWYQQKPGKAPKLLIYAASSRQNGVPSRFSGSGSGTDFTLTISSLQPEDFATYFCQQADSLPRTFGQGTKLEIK', 'fold', 3.39),
  ('6E7 variant V61 (antibody, V domains shown) VH: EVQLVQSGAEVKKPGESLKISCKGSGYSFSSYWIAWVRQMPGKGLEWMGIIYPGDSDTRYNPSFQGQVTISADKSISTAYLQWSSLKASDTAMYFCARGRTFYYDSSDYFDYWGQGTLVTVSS VL: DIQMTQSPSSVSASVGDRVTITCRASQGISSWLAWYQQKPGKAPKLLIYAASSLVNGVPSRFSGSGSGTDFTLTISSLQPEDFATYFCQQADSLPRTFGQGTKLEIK', 'fold', 3.63);

Sample 6E7 variant V64 (antibody, V domains shown) VH: EVQLVQSGAEVKKPGESLKISCKGSGYSFQSYWIAWVRQMPGKGLEWMGIIYPGDSDTRYSPSFQGQVTISADKSISTAYLQWSSLKASDTAMYFCARGRTFYYDSSDYFDYWGQGTLVTVSS VL: DIQMTQSPSSVSASVGDRVTITCRASQGISSWLAWYQQKPGKAPKLLIYAASSLANGVPSRFSGSGSGTDFTLTISSLQPEDFATYFCQQADSYPRTFGQGTKLEIK ; Binding Signal (fold over 6E7 parental antibody) observed: 4.88
